- assay.target: Arachidonate 5-lipoxygenase-activating protein (Homo sapiens, UniProt P20292)
- Sequence (P20292 whole entry): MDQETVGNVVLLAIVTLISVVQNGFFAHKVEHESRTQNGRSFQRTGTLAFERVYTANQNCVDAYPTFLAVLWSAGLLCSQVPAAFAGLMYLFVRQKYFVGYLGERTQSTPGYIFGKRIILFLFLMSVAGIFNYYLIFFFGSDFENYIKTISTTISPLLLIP
- assay.summary: Displacement of [125I]-L-691831 from human FLAP expressed in insect SF9 cell membranes after 2 hrs by Topcount analysis
assay.endpoint: pIC50
# pIC50 is unitless: minus log10 of the molar concentration; print number only

Form entry - test system: Arachidonate 5-lipoxygenase-activating protein (Homo sapiens, UniProt P20292); read-out: pIC50; molecule: Nc1ncc(-c2ccc(C3(c4noc(-c5cnn(CC(=O)O)c5)n4)CCC3)cc2)cn1
7.74

Reported pIC50 for Arachidonate 5-lipoxygenase-activating protein (Homo sapiens, UniProt P20292), given CN(C)C(=O)Cn1cc(-c2nc([C@@](C)(c3ccc(-c4cnc(N)nc4)cc3)C3CC3)no2)cn1 ?
8.77

Form field: pIC50 recorded for CC(C)(O)Cn1cc(-c2nc([C@@](C)(c3ccc(-c4cnc(N)nc4)cc3)C3CC3)no2)cn1 with Arachidonate 5-lipoxygenase-activating protein (Homo sapiens, UniProt P20292) (enter value)
8.68

====

- assay.target: Arachidonate 5-lipoxygenase-activating protein (Homo sapiens)
- assay.summary: Inhibition of FLAP in calcimycin-stimulated human whole blood assessed as inhibition of LTB4 synthesis preincubated for 15 mins followed by calcimycin stimulation measured after 30 mins
Please respond with reported IC50 for every item in the list.
Give the value in nM but do not write nM after it.

API: value(readout=IC50, system=Arachidonate 5-lipoxygenase-activating protein (Homo sapiens)) for record CC(C)C(C)(c1ccc(-c2cnc(N)nc2)cc1)c1noc(-c2cnn(C)c2)n1 (racemic)
46

Identify the measured IC50 of CN(C)CCn1cc(-c2nc([C@@](C)(c3ccc(-c4cnc(N)nc4)cc3)C3CC3)no2)cn1 for Arachidonate 5-lipoxygenase-activating protein (Homo sapiens).
14

Lookup: IC50 / Arachidonate 5-lipoxygenase-activating protein (Homo sapiens) / Cn1cc(-c2nc([C@@](C)(c3ccc(-c4cnc(N)nc4)cc3)C3CCC3)no2)cn1
91

For the record CCNc1ncc(-c2ccc(C(C)(c3noc(-c4cnn(CC(=O)N(C)C)c4)n3)C3CC3)cc2)cn1 (racemic) , what value of IC50 is listed for Arachidonate 5-lipoxygenase-activating protein (Homo sapiens)?
1000

====

- assay.summary: Mean residence time in dog at 1 mg/kg, iv
- Type: ADME, organism-based, Canis lupus familiaris
- Parameters: dose 1 mg/kg, route intravenous
- measurement.setup: in vivo
assay.endpoint: MRT (h)
Enter your answer as a number in h; do not include the unit.

Given the molecule CN(C)C(=O)Cn1cc(-c2nc([C@@](C)(c3ccc(-c4cnc(N)nc4)cc3)C3CC3)no2)cn1 , what is its reported MRT?
23

====

- assay.summary: Mean residence time in cynomolgus monkey at 1 mg/kg, iv
- Type: ADME, organism-based, Macaca fascicularis
- Design: dose 1 mg/kg, route intravenous
- measurement.setup: in vivo
assay.endpoint: MRT (h)
Output spec: scalar in h, unitless text.

Name the recorded MRT for CN(C)C(=O)Cn1cc(-c2nc([C@@](C)(c3ccc(-c4cnc(N)nc4)cc3)C3CC3)no2)cn1 .
4.8

====

- assay.target: hERG (KCNH2) (Homo sapiens, UniProt Q12809)
- Sequence (Q12809 whole entry): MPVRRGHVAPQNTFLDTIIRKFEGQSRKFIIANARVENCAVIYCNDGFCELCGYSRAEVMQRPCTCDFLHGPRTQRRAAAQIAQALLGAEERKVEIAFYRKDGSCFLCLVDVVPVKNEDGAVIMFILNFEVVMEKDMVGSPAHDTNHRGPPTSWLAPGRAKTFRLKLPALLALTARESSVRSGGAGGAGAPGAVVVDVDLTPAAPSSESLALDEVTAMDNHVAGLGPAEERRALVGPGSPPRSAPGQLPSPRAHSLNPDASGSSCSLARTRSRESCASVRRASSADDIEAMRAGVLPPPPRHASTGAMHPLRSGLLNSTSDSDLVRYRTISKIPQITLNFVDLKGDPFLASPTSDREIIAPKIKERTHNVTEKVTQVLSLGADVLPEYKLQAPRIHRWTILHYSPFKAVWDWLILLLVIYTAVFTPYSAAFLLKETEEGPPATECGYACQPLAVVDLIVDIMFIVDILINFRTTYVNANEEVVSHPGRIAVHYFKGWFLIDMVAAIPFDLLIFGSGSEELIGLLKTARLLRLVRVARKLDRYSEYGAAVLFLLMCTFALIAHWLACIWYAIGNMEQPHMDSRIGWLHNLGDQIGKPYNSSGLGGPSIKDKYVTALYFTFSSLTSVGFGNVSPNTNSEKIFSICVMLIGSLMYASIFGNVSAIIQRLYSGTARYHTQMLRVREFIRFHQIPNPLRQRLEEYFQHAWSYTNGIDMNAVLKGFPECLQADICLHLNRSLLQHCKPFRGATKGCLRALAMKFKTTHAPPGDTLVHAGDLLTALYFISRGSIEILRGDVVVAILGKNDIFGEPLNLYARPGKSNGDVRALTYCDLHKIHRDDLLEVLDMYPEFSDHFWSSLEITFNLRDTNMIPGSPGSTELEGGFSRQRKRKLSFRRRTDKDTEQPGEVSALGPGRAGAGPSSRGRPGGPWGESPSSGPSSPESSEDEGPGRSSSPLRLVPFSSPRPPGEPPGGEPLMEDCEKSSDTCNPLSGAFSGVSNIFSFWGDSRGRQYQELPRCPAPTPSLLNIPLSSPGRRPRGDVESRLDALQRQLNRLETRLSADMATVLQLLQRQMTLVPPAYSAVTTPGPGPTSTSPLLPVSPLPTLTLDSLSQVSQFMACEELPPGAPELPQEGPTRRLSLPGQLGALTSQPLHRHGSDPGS
- assay.summary: Inhibition of human ERG expressed in HEK293 cells assessed as change in tail current at 11 uM by manual patch clamp assay relative to control
- Format: cell-based
- measurement.setup: HEK293 cells that express hERG
assay.endpoint: inhibition at 11 µM (%)
Please reply with the bare figure in % and do not write the unit itself.

What value of inhibition at 11 µM has been reported for the following compound? CC(C)(O)Cn1cc(-c2nc([C@@](C)(c3ccc(-c4cnc(N)nc4)cc3)C3CC3)no2)cn1
16

# get_value(readout='inhibition at 11 µM', item= CN(C)CCn1cc(-c2nc([C@@](C)(c3ccc(-c4cnc(N)nc4)cc3)C3CC3)no2)cn1 )
31

Find the recorded inhibition at 11 µM belonging to CC(C)(O)Cn1cc(-c2nc(C3(c4ccc(-c5cnc(N)nc5)cc4)CCC3)no2)cn1 and report it.
51

Recorded inhibition at 11 µM for CN(C)C(=O)Cn1cc(-c2nc([C@@](C)(c3ccc(-c4cnc(N)nc4)cc3)C3CC3)no2)cn1 , please?
11
